# target: HDM2 (Homo sapiens, UniProt Q00987)
# Construct: Thioredoxin (N); made in house; host or cells: E. coli strain BL21(DE3)Rosetta
# Sequence (Q00987 17-125): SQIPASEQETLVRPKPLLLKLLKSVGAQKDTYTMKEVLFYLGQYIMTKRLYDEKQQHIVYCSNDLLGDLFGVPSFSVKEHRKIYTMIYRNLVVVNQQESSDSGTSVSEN
# assay-info: HDM2 FRET assay (inhibition of binding of FITC labeled p53-pocket peptide to HDM2)
# test-conditions: Table 22; read-out: FRET IC50
readout: IC50 (µM)
Output spec: scalar in µM, unitless text.

>>> observed_measurement("C[C@@H](Nc1nc(-c2noc(=O)[nH]2)nc2nc(C(C)(F)c3ccccc3F)n(C[C@H]3CC[C@H](C)CC3)c12)C1CCC1 (single isomer, unassigned) [Example 22.65]")
0.0226
>>> observed_measurement("C[C@@H](Nc1nc(-c2noc(=O)[nH]2)nc2nc(C(C)(O)c3ccccn3)n(C[C@H]3CC[C@H](C)CC3)c12)C1CCC1 (single isomer, unassigned) [Example 22.7]")
0.0199
>>> observed_measurement("CC(=O)c1nc2nc(-c3noc(=O)[nH]3)nc(N[C@H](C)C3CCC3)c2n1C[C@H]1CC[C@H](C)CC1")
0.0253
>>> observed_measurement("C[C@@H](Nc1nc(-c2noc(=O)[nH]2)nc2nc(C(C)(O)c3cccnc3)n(C[C@H]3CC[C@H](C)CC3)c12)C1CCC1 (stereo partly drawn) [Example 22.51]")
0.0212

Ask | // returns reported IC50 for input `C[C@@H](Nc1nc(-c2noc(=O)[nH]2)nc2nc(C3CCC3)n(C[C@H]3CC[C@H](C)CC3)c12)C1CCC1`
Reply | 0.0151

Ask | Would you kindly repeat that for `C[C@@H](Nc1nc(-c2noc(=O)[nH]2)nc2nc(CC(C)(C)O)n(C[C@H]3CC[C@H](C)CC3)c12)C1CCC1` ?
Reply | 0.0556

* * *

# target: HDM2 (Homo sapiens, UniProt Q00987)
# Construct: Thioredoxin (N); made in house; host or cells: E. coli strain BL21(DE3)Rosetta
# assay-info: HDM2 FRET assay (inhibition of binding of FITC labeled p53-pocket peptide to HDM2)
# test-conditions: Table 22; read-out: FRET IC50
readout: log10 IC50 (log10 of the value in nM)
Quick note: numbers are log10 of IC50, with nM as the unit.

Answered examples (3):
>>> observed_measurement("C[C@@H](Nc1nc(-c2noc(=O)[nH]2)nc2nc(C(O)C3CCCC3)n(C[C@H]3CC[C@H](C)CC3)c12)C1CCC1 (stereo partly drawn) [Example 22.47]")
0.70
>>> observed_measurement("C[C@@H](Nc1nc(-c2noc(=O)[nH]2)nc2nc(C3(O)CCOCC3)n(C[C@H]3CC[C@H](C)CC3)c12)C1CCC1")
1.69
>>> observed_measurement("COC(c1ccccc1)c1nc2nc(-c3noc(=O)[nH]3)nc(N[C@H](C)C3CCC3)c2n1C[C@H]1CC[C@H](C)CC1 (single isomer, unassigned) [Example 22.19]")
0.89

Ask | Find log10 IC50 (HDM2 (Homo sapiens, UniProt Q00987)) for the entry `C=C(c1nc2nc(-c3noc(=O)[nH]3)nc(N[C@H](C)C3CCC3)c2n1C[C@H]1CC[C@H](C)CC1)C(C)(C)C`
Reply | 0.76

Ask | Now the compound `C[C@@H](Nc1nc(-c2noc(=O)[nH]2)nc2nc(C(F)(F)c3ccccc3)n(C[C@H]3CC[C@H](C)CC3)c12)C1CCC1`
Reply | 0.53

Ask | Here is the next compound: `C[C@@H](Nc1nc(-c2noc(=O)[nH]2)nc2nc(C3(c4ccccn4)CC3)n(C[C@H]3CC[C@H](C)CC3)c12)C1CCC1`
Reply | 0.80

Values were extracted from patent EP2951180B1.
